TARGET OR TEST SYSTEM: Macrophage metalloelastase (Homo sapiens, UniProt P39900)
Sequence (P39900 whole entry): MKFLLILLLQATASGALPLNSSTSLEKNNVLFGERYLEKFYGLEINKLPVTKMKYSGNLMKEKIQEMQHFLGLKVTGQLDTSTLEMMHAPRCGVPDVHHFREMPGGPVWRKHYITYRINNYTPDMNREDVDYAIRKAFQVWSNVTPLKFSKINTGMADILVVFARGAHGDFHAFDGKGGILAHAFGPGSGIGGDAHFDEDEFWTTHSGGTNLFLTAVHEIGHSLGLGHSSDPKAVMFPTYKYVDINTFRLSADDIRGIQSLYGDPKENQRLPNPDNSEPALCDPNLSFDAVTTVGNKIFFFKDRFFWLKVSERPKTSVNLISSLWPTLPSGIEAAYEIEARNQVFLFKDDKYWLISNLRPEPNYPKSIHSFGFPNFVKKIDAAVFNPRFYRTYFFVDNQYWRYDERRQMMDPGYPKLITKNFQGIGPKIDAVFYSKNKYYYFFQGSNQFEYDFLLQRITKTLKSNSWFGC
TEST METHOD NOTES: MMP Activity Assay
EXPERIMENTAL CONDITIONS: pH 7.5; 37 °C
ENDPOINT NAME: IC50

{"columns": ["CHEMICAL STRING", "TARGET OR TEST SYSTEM", "RESULT VALUE"],
 "data": [
  ["O=C(NCCc1nccs1)c1cnc2c(S)cccc2c1", "Macrophage metalloelastase (Homo sapiens, UniProt P39900)", "> 50 µM"]
]}

###

TARGET OR TEST SYSTEM: Lactoylglutathione lyase (Homo sapiens, UniProt Q04760)
Sequence (Q04760 whole entry): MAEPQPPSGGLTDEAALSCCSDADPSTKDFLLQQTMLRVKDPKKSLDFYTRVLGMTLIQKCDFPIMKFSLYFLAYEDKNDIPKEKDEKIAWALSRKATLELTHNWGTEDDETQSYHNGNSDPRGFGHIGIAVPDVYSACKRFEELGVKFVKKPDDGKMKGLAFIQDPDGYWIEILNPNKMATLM
ENDPOINT NAME: IC50 (µM)

{"columns": ["MOLECULE", "ENDPOINT NAME", "UNIT", "RESULT VALUE"],
 "data": [
  ["O=C(NCCc1nccs1)c1cnc2c(S)cccc2c1 [Capzimin]", "IC50", "µM", 42.8]
]}

###

TARGET OR TEST SYSTEM: 72 kDa type IV collagenase (Homo sapiens, UniProt P08253)
Sequence (P08253 whole entry): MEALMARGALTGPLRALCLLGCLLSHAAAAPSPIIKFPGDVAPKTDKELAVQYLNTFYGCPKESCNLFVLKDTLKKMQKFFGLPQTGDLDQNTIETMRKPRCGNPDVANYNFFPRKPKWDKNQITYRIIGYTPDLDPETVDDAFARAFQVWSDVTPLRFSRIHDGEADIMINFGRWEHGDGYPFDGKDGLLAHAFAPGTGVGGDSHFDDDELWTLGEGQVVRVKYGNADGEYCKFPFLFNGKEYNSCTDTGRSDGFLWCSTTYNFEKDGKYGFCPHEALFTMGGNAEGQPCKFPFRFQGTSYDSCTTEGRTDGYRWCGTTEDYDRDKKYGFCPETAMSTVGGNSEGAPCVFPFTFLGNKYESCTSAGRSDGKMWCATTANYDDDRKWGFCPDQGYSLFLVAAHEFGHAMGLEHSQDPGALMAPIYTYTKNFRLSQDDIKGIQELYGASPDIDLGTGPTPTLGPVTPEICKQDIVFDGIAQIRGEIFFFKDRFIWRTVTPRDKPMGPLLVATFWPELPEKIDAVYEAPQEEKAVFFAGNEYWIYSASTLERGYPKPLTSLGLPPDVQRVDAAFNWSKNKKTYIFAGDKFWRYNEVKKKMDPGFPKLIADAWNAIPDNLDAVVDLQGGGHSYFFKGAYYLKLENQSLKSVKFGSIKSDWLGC
ENDPOINT NAME: IC50

{"columns": ["COMPOUND", "TARGET OR TEST SYSTEM", "RESULT VALUE"],
 "data": [
  ["O=C(NCCc1nccs1)c1cnc2c(S)cccc2c1 [Capzimin]", "72 kDa type IV collagenase (Homo sapiens, UniProt P08253)", "> 50 µM"]
]}
